Reference for the values: patent US20200155661A1

Each item that follows carries a reported EC50.
- system-name: T1, recombinant human CD22 (labeled CD22 used in flow cytometry of yeast) (human, UniProt P20273 20-687, limits assumed, fluorescent label, not specified)
- T1 construct: also called fluorescently tagged antigen
- method-notes: flow cytometry of yeast-displayed scFv with decreasing amounts of labeled CD22

Example binders with recorded EC50:
CD22-specific binder (scFv9) 16P2 (scFv) scFv: QVQLQQSGPGLVKPSQTLSLTCAISGDSVSSNSAAWNWIRQSPSRGLEWLGRTYYRSKWYNDYAVSVKSRITINPDTFKNQFSLQLNSVTPEDTAVYYCAQEVEPHDALDIWGQGTMVTVSSGGGGSGGGGSGGGGSDIKMTQSPSSVSASVGDKVTITCRASQDVSGWLAWYQQKPGLAPQLLIFGASTLQGEVPSRFSGSGSGTDFTLTISSLQPEDFATYYCQQAKYFPYTFGQGTKLEIK = < 0.01 µg/mL
CD22-specific binder (scFv18) 16P15 (scFv) scFv: QVQLQQSGPGLVKPSQTLSLTCAISGDSVSSNSAAWNWIRQSPSRGLEWLGRTYYRSKWYNDYAVSVKSRITINPDTSKNQFSLQLNSVTPEDTAVYYCAQEVEPHDALDIWGQGTMVTVSSGGGGSGGGGSGGGGSDIQMTQSPSSVSASVGDKVTITCRASQDVSGWLAWYQQKPGLAPQLLIFGASTLQGEVPSRFSGSGSGTDFTLTISSLQPEDFATYYCQQAKYFPYTFGQGTKLEIK = < 0.01 µg/mL

Consider the binder CD22-specific binder (scFv15) 16P3v2 (scFv) scFv: QVQLQQSGPGLVKHSQTLSLACAISGDSVSSNSAAWNWIRQSPSRGLEWLGRTYYRSKWYNDYAVSVKSRITINPDTSKNQFSLQLNSVTPEDTAVYYCAQEVQPQDALDIWGQGTMVTVSSGGGGSGGGGSGGGGSDIQMTQSPSFVSASVGDKVIITCRASQDVSGWLAWYQQKPGLAPQLLISGASTLQGEVPSRFSGSGSGTDFTLTISSLQPEDFATYYCQQAKYFPYTFGQGTKLEIK . State its measured EC50.
< 0.01 µg/mL

Indicate its recorded EC50; the binder in question is CD22-specific binder (scFv1) 16P (scFv, also called founder clone) scFv: QVQLQQSGPGLVKPSQTLSLTCAISGDSVSSNSAAWNWIRQSPSRGLEWLGRTYYRSKWYNDYAVSVKSRITINPDTSKNQFSLQLNSVTPEDTAVYYCAQEVQPHDAFDIWGQGTMVTVSSGGGGSGGGGSGGGGSDIQMTQSPSSVSASVGDKVTITCRASQDVSGWLAWYQQKPGLAPQLLIFGASTLQGEVPSRFSGSGSGTDFTLTISSLQPEDFATYYCQQAKNFPYTFGQGTKLEIKR
0.5 µg/mL

Quote EC50 reported for CD22-specific binder (scFv17) 16P13 (scFv) scFv: QVQLQQSGPGLVKPSQTLSLTCAISGNSVSSNSAAWNWIRQSPSRGLEWLGRTYYRSKWYNDYAVSVKSRITINPDTSKNQFSLQLNSVTPEDTAVYYCAQEVEPQDAFDIWGQGTMVTVSSGGGGSGGGGSGGGGSDIQMTQSPSSVSASVGDKVTITCRASQDVSGWLAWYQQKPGLAPQLLIFGASTLQGEVPSRFSGGGSGTDFTLTISSLQPEDFATYYCQQAKYFPYTFGQGTKLEIK please.
< 0.01 µg/mL

Answer with the recorded EC50 of CD22-specific binder (scFv16) 16P8 (scFv) scFv: QVQLQQSGPGLVKPSQTLSLTCAISGDSVSSNSAAWNWIRQSPSRGLEWLGRTYYRSKWYTDYAVSVKNRITINPDTSKNQFSLQLNSVTPEDTAVYYCAQEVEPQDAFDIWGQGTMVTVSSGGGGSGGGGSGGGGSDIQMTQSPSSVSASVGDKVTITCRASQDVSGWLAWYQQKPGLAPQLLIFGASTLQGEVPSRFSGSGSGTDFTLTISSLQPEDFATYYCQQAKYFPYTFGRGTKLEIK only.
< 0.01 µg/mL

Give the value of EC50 reported for the following: CD22-specific binder (scFv11) 16P10 (scFv) scFv: QVQLQQSGPGLVKPSQTLSLTCAISGDSVSSNSAAWNWIRQSPSRGLEWLGRTYYRSKWYNDYAVSVKSRITINPDTSKNQFSLQLNSVTPEDTAVYYCAQEVEPQDAFDIWGQGTMVTVSSGGGGSGGGGSGGGGSDIQMTQSPSSVSASVGDKVTITCRASQDVSGWLAWYQQKPGLAPQLLIFGASTLQGEVPSRFSGSGSGTDFTLTISSLQPEDFATYYCQQAKYFPYTFGPGTKLEIK
< 0.01 µg/mL

Identify measured EC50 associated with CD22-specific binder (scFv14) 16P1 (scFv) scFv: QVQLQQSGPGLVKPSQTLSLTCDISGDSVSSNSAAWNWIRQSPSRGLEWLGRTYYRSKWYNDYAVSVKSRITINPDTSKNQFSLQLNSVTPEDTAVYYCAQEIEPHDAFDIWDQGTMVTVSSGGGGSGGGGSGGGGSVIQMTQSPSSVSASVGDKVTITCRASQDVSGWLAWYQQKPGLAPQLLISGASSLQGGVPSRFSGSGSGTDFTLTISSLQPEDFATYYCQQAKYFPYTFGQGTKLEIK
< 0.01 µg/mL

Tell me its EC50 given CD22-specific binder (scFv7) 16P16 (scFv) scFv: QVQLQQSGPGLVKPSQTLSLTCAISGDSVSSNSAAWNWIRQSPSRGLEWLGRTYYRSKWYNDYAVSVKSRITINPDTFKNQFSLQLNSVTPEDTAVYYCAQEVEPHDALDIWGQGTMVTVSSGGGGSGGGGSGGGGSDIKMTQSPSSVSASVGDKVTITCRASQDVSGWLAWYQQKPGLAPQLLIFGASTLQGEVPSRFSGSGSGTDFTLTISSLQPEDFATYYCQQAKYFPYTFGQGTKLEIK as the entry.
< 0.01 µg/mL
